Cited source: the Bradley open melting point set (2014)

{"compound": "C=CC(=O)NCCNC(=O)C=C [N,N'-ethylenebisacrylamide]", "melting point, °C": 142}
{"compound": "O=C(O)c1ccccc1Br", "melting point, °C": 149}
{"compound": "NC(=O)Oc1ccccc1 [phenyl carbamate]", "melting point, °C": 151}
{"compound": "O=[N+]([O-])c1ccc(CO)cc1", "melting point, °C": 94}
{"compound": "COc1ccc2cc(C(C)O)ccc2c1 (stereo not drawn)", "melting point, °C": 112}
{"compound": "O=C(O)c1ccc(Cl)c(Cl)c1", "melting point, °C": 208}
{"compound": "CCCCCCCCCCc1ccc(N(NC(=O)OC(C)(C)C)C(=O)OC(C)(C)C)cc1CCCCCCCCCC [1,2-Bis(tert-butoxycarbonyl)-1-(3,4-didecylphenyl)hydrazine]", "melting point, °C": 37.5}
{"compound": "CC(=O)c1cccc(C(C)=O)c1", "melting point, °C": 36}
{"compound": "CC(=O)Nc1ccc(/C=C/c2ccc(NC(C)=O)cc2)cc1 [N,N'-[(E)-ethene-1,2-diyldibenzene-4,1-diyl]diacetamide]", "melting point, °C": 172}
{"compound": "OC[C@H]1O[C@H](O)[C@H](O)[C@@H](O)[C@@H]1O", "melting point, °C": 154}
{"compound": "Cc1ccc(-c2csc(/C(C#N)=N/Nc3cccc(C)c3)n2)cc1", "melting point, °C": 133}
{"compound": "Cc1cc[n+]([O-])cc1C(=O)NN [4-methylpyridine-3-carbohydrazide 1-oxide]", "melting point, °C": 226}
{"compound": "Cc1ccnc(NS(=O)(=O)c2ccc(N)cc2)n1", "melting point, °C": 235}
{"compound": "CC(=O)N1CCN(c2ccc(OC[C@H]3CO[C@](Cn4ccnc4)(c4ccc(Cl)cc4Cl)O3)cc2)CC1", "melting point, °C": 146}
{"compound": "Cc1cccc(C)c1N", "melting point, °C": 11}
{"compound": "NC(=O)c1ccc(Br)cc1 [4-bromobenzamide]", "melting point, °C": 192}
{"compound": "N#CCc1ccccc1C#N", "melting point, °C": 80}
{"compound": "O=[N+]([O-])c1c(Cl)c(Cl)cc(Cl)c1Cl", "melting point, °C": 99.5}
